meta.source: patent US20110237659A1

target: Human TRPV3 (Homo sapiens, UniProt Q8NET8); construct: expressed in transfected cells; host or cells: CHO cells; test: 45Calcium uptake assay: inhibition of 2-APB induced cellular uptake of radioactive calcium in human TRPV3 expressing CHO cells; type: cell-based; details: 10.0 μM test compound, 2-APB 500 μM, read-out: Percentage inhibition at 10.0 μM
Sequence (Q8NET8 whole entry): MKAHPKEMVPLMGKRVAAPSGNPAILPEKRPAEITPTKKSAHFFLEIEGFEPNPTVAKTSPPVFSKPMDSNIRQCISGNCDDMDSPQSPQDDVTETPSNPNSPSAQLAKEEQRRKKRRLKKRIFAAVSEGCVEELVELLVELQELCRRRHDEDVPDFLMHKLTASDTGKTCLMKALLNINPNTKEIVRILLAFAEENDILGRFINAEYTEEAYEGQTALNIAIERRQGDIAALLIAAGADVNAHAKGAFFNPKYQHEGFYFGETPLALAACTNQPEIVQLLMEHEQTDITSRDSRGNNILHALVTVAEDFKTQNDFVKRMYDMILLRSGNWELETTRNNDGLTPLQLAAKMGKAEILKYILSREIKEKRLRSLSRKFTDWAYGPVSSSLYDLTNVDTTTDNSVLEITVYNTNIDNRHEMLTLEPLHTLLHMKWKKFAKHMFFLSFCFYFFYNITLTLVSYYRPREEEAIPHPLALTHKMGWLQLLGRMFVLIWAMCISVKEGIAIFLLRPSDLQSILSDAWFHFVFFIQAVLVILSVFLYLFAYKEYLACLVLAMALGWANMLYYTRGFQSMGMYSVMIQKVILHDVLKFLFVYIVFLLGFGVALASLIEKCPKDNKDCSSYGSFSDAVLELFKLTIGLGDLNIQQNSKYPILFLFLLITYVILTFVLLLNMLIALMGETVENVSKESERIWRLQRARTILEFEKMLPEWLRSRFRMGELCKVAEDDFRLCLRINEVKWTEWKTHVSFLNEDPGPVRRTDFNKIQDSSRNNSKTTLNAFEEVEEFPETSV
Classify as follows. Reported inhibition at 10 µM greater than or equal to 90%: 1 (yes). Reported inhibition at 10 µM below: 0 (no).

hey, is inhibition at 10 µM for this one >= 90%? "COc1cccc(/C=C/c2oc3ccc(F)cc3c(=O)c2-c2ccc(C#N)cc2)c1OCCC(C)C"
0 (no)

hey, is inhibition at 10 µM for this one >= 90%? "COc1cccc(/C=C/c2oc3ccccc3c(=O)c2-c2ccc(C#N)cc2)c1OCC(C)C"
1 (yes)

hey, is inhibition at 10 µM for this one >= 90%? "COc1cccc(/C=C/c2oc3ccccc3c(=O)c2-c2ccc(OC(F)(F)F)cc2)c1OCC1CC1"
0 (no)

hey, is inhibition at 10 µM for this one >= 90%? "COc1cccc(/C=C/c2oc3cc(F)c(F)cc3c(=O)c2-c2ccc(C#N)cc2)c1OC1CCCC1"
0 (no)

hey, is inhibition at 10 µM for this one >= 90%? "N#Cc1ccc(-c2c(/C=C/c3cccc(OC(F)F)c3OCC3CC3)oc3ccccc3c2=O)cc1"
1 (yes)

hey, is inhibition at 10 µM for this one >= 90%? "COc1cccc(/C=C/c2oc3ccccc3c(=O)c2-c2ccc(C#N)cc2)c1OCC1CC1"
1 (yes)

hey, is inhibition at 10 µM for this one >= 90%? "COc1cccc(/C=C/c2oc3ccc(F)cc3c(=O)c2-c2ccc(C#N)cc2)c1OCC(C)(C)C"
0 (no)
